- Assayed Target: T1, human ROR1 Frizzled domain (hROR1-Fz) (human, UniProt Q01973 165-305)
- T1 construct: Acro Biosystems, made in HEK293
- T1 sequence (Q01973 other isoform, or with tags, fused parts or gaps): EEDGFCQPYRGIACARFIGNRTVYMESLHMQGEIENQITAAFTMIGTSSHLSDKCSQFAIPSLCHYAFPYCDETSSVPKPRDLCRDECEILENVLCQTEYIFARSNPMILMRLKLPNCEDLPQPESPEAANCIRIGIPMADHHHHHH
- Protocol Notes: SPR Biacore, IgG on anti-Fc, ROR1-Fz analyte
Measured Endpoint: kon (M⁻¹ s⁻¹)
Your answer is read as M⁻¹ s⁻¹, so omit the unit and give the number.

1) SRP2196-A08 (antibody, V domains shown, His/FLAG-tagged IgG1) VH: EVQLVESGGGLVQPGGSLRLSCAASGFNITGYYIHWVRQAPGKGLEWVGYISPNSGSTYKADSVKGRFTISADTSRNTAYLQMNSLRAEDTAVYYCARDSRRYVRSWDYWGQGTLVTVSS VL: QAVVTQESALTTSPGETVTLTCRSSTGAVTTSNYANWVQEKPDHLFTGLIGGTNKRAPGVPARFSGSLIGDKAALTITGAQTEDEAIYFCALWYSNLWVFGGGTKLTVL
183000
2) SRP1944-A07 w SP34 LC3 (antibody, V domains shown, Parent of SRP2196; IgG) VH: EVQLVESGGGLVQPGGSLRLSCAASGFNITGYYIHWVRQAPGKGLEWVGYISPNSGSTYYADSVKGRFTISADTSKNTAYLQMNSLRAEDTAVYYCARDSRRYVRPFDYWGQGTLVTVSS VL: QTVVTQEPSLTVSPGGTVTLTCGSSTGAVTSGYYPNWFQQKPGQAPRGLIGGTKFLAPGTPARFSGSLLGGKAALTLSGVQPEDEAEYYCALWYSNRWVFGGGTQLTVTG
597000
3) SRP2196-B04 (antibody, V domains shown, His/FLAG-tagged IgG1) VH: EVQLVESGGGLVQPGGSLRLSCAASGFNITEYYIHWVRQAPGKGLEWVGYISPNSGATYQADSVKGRFTISADTSKNTAYLQMNSLRAEDTAVYYCARDSRRYVRGWDYWGQGTLVTVSS VL: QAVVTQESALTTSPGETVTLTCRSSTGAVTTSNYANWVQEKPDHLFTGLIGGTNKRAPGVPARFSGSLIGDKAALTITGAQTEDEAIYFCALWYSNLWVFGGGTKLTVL
127000

Proceeding to the next binder to report its kon.
I'd like to know its kon. The binder in question is SRP2196-C04 (antibody, V domains shown, His/FLAG-tagged IgG1; also called Antibody 162) VH: EVQLVESGGGLVQPGGSLRLSCAASGFNITGYYIHWVRQAPGKGLEWVGFIAPLSGSTHNADSVKGRFTISADTSKNTAYLQMNSLRAEDTAVYYCARESRRYVNPWDYWGQGTLVTVSS VL: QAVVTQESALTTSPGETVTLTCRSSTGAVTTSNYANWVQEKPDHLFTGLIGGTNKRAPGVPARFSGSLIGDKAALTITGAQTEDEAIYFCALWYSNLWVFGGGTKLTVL
131000
